# key: entry, value: melting point

Some solved entries appear below for comparison.
INSERT INTO assay_data (compound, observed_measurement) VALUES
  ('Cc1ccccc1Nc1nc2ccc(CC(=O)N(CCc3ccccc3)CC(=O)Nc3ccc(C(=O)O)cc3)cc2o1 [Example 82]', '232 to 233 °C'),
  ('Cc1ccccc1Nc1nc2ccc(CC(=O)NCC(=O)Nc3ccc(C(=O)O)cc3)cc2o1 [Example 81]', '267 to 268 °C'),
  ('Cc1ccccc1NC(=O)Nc1ccc(CC(=O)N[C@H](CCCCN)C(=O)Nc2ccc(C(=O)O)cc2)cc1.O=C(O)C(F)(F)F [Example 54]', '73 to 75 °C'),
  ('COCCCN(CC(=O)N(CC(C)C)c1ccc(C(=O)O)cc1)C(=O)Cc1ccc(NC(=O)Nc2ccccc2C)cc1 [Example 52]', '76 to 76.5 °C');

Entry Cc1ccccc1NC(=O)Nc1ccc(CC(=O)NCC(=O)Nc2ccc(C(=O)O)cc2)cc1 [Example 39] ; melting point = 268 to 271 °C

Entry Cc1ccccc1NC(=O)Nc1ccc(CC(=O)N[C@@H](CCCCN)C(=O)Nc2ccc(C(=O)O)cc2)cc1.O=C(O)C(F)(F)F [Example 53a] ; melting point = 168 to 169 °C

Entry Cc1ccccc1Nc1nc2ccc(CC(=O)N(CCc3ccccn3)CC(=O)Nc3ccc(C(=O)O)cc3)cc2o1 [Example 83] ; melting point = 175 to 176 °C
